- target desc: NOX-2 (Homo sapiens (Human))
- Sequence (P04839 2-570, species assumed): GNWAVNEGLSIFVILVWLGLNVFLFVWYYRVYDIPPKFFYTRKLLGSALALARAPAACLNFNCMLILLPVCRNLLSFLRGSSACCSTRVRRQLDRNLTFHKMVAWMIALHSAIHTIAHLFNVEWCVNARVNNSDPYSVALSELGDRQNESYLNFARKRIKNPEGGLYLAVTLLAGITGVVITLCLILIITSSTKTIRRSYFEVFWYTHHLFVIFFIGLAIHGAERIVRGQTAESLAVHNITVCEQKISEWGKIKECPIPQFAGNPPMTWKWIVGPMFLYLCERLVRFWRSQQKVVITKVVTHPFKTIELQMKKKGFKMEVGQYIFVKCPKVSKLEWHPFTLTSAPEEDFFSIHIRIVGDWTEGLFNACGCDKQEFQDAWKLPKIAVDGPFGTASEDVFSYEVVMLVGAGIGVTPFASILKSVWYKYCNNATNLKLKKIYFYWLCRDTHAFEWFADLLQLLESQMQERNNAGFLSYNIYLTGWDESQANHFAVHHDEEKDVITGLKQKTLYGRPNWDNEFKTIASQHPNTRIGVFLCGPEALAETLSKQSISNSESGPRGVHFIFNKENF
- Sequence (P13498 whole entry partner, species assumed): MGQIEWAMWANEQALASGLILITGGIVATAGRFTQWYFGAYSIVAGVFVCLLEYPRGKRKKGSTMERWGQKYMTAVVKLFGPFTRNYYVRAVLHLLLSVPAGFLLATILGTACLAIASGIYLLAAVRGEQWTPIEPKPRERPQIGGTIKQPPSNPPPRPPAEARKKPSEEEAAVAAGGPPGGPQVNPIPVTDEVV
- procedure text: NOX-2 inhibition (Nox assays)
- Format: biochemical
Record form. Attribute: IC50. Fill in for each entry.
Give a bare numeral; the unit µM is implied.

Entry O=C(CCCn1c(=S)[nH]c2ccc(F)cc2c1=O)N1CCN(c2ccccc2O)CC1 [LY4-123S] has what IC50?
3.3

Let us now turn to CC(C)N1CCN(CCCn2c(SCCc3c[nH]c4ccccc34)nc3ccc(F)cc3c2=O)CC1 [TG17-57]
2.4

Let us now turn to CN(C)CCCn1c(SCCc2c[nH]c3ccccc23)nc2ccc(F)cc2c1=O.Cl [TG15-132S, hydrochloride]
3.3

Let us now turn to CN(C)CCCn1c(SCCc2c[nH]c3ccccc23)nc2ccc(Cl)cc2c1=O.Cl [TG15-139S, Hydrochloride]
1.65

###

pIC50 data for NOX-4 (Homo sapiens (Human)) follow.
// scale note: pIC50 = -log10(conc_M); give the bare number

Entry CN(C)CCCn1c(SCCc2c[nH]c3ccccc23)nc2ccc(F)cc2c1=O.Cl [TG15-132S, hydrochloride] has what pIC50?
4.59

Let us now turn to CN(C)CCCn1c(SCCc2c[nH]c3ccccc23)nc2ccc(Cl)cc2c1=O.Cl [TG15-139S, Hydrochloride]
4.49

Let us now turn to O=C(CCCn1c(=S)[nH]c2ccc(F)cc2c1=O)N1CCN(c2ccccc2O)CC1 [LY4-123S]
5.08

###

- procedure text: Mouse liver microsomal stability
- Type: in vitro ADME
- assay conditions: mouse liver microsomes; read-out: MLM T1/2
measurement kind: half-life (min)
Give a bare numeral; the unit min is implied.

Entry CN(C)CCCn1c(SCCc2c[nH]c3ccccc23)nc2ccc(Cl)cc2c1=O.Cl [TG15-139S] has what half-life?
75

Let us now turn to CN(C)CCCn1c(SCCc2c[nH]c3ccccc23)nc2ccc(F)cc2c1=O.Cl [TG15-132S]
24
